# TEST_SYSTEM: GDP-bound KRAS wild-type protein (Homo sapiens, UniProt P01116)
# Sequence (P01116 whole entry): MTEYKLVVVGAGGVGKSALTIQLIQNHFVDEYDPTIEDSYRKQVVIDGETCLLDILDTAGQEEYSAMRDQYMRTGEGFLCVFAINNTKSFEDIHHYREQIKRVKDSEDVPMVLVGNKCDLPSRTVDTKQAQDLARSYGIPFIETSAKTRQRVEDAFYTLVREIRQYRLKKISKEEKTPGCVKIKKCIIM
# ASSAY_PROTOCOL: Binding to KRAS by surface plasmon resonance (SPR), Single Cycle Kinetics
# TEST_PARAMETERS: SPR Single Cycle Kinetics, GDP-bound KRAS wild-type protein, 1:1 binding model; read-out: KRAS KD
*1 amine or outer side, *2 acyl side, *3 side chain or, on linkers, in order; H or OH if unused. Where a SMILES comes first, the peptide text is derived from it. Bridges are numbered along the chain shown (N, C = ends). [ ]: non-standard residue; d: D form. The star is where a group is joined. hPhe(3-Cl-4-CF3) = N[C@@H](CCc1ccc(C(F)(F)F)c(Cl)c1)C(=O)O; NPrPhe(4-CF3) = CCCN[C@@H](Cc1ccc(C(F)(F)F)cc1)C(=O)O; X16 = CCCN([C@@H](Cc1ccc(OC)cc1)C(=O)[*:2])[*:1]; NMeGly(cPent) = CN[C@H](C(=O)O)C1CCCC1; Hyp = O=C(O)[C@@H]1C[C@@H](O)CN1; NMeD = CN[C@@H](CC(=O)O)C(=O)O; NMeL = CN[C@@H](CC(C)C)C(=O)O; Morpholide = C1CN(*)CCO1; Ac5c = NC1(C(=O)O)CCCC1; Ac4c = NC1(C(=O)O)CCC1; NEtG = CCNCC(=O)O; Sar = CNCC(=O)O
Response field label takes T when Kd is strictly below 2 nM and F in all other cases.

{"MOLECULE": "CCCN1C(=O)CN(C)C(=O)CN(CC)C(=O)[C@H]([C@@H](C)CC)NC(=O)[C@H](CC(C)C)N(C)C(=O)C[C@@H](C(=O)N2CCOCC2)NC(=O)[C@H](C2CCCC2)N(C)C(=O)C2(CCC2)NC(=O)[C@@H]2C[C@@H](OCC)CN2C(=O)[C@H](CCc2ccc(C(F)(F)F)c(Cl)c2)NC(=O)CN(C)C(=O)[C@@H]1Cc1ccc(C(F)(F)F)cc1 [PP0336] ([NMeL]I[NEtG][Sar][NPrPhe(4-CF3)][Sar][hPhe(3-Cl-4-CF3)][Hyp](Et)[Ac4c][NMeGly(cPent)]D-Morpholide; lactam N-11)", "DISCRETE_LABEL": "T"}
{"MOLECULE": "CCCN1C(=O)CN(C)C(=O)CN(C)C(=O)[C@H]([C@@H](C)CC)NC(=O)[C@H](CC(C)C)N(C)C(=O)C[C@@H](C(=O)N2CCOCC2)N(C)C(=O)[C@H](C2CCCC2)N(C)C(=O)C2(CCCC2)NC(=O)[C@@H]2CCCN2C(=O)[C@H](CCc2ccc(C(F)(F)F)c(Cl)c2)NC(=O)CN(C)C(=O)[C@@H]1Cc1ccc(OC)cc1 [PP0135] ([NMeL]I[Sar][Sar][X16][Sar][hPhe(3-Cl-4-CF3)]P[Ac5c][NMeGly(cPent)][NMeD]-Morpholide; lactam N-11)", "DISCRETE_LABEL": "T"}

INPUT: Lab note: Kd threshold 2 nM. Does this molecule come in strictly under it? CC[C@H](C)[C@@H]1NC(=O)[C@H](COC)N(C)C(=O)C[C@@H](C(=O)N(C)C)N(C)C(=O)[C@H](C2CCCCC2)N(C)C(=O)C2(CC(C)(C)C2)NC(=O)[C@@H]2C[C@@H](OC(C)C)CN2C(=O)[C@H](CCc2ccc(Cl)c(Cl)c2)NC(=O)CN(C)C(=O)[C@H](Cc2ccc(C(F)(F)F)cc2)N2CC/C=C\C[C@@H](C2=O)N(C)C(=O)CN(C)C1=O
OUTPUT: T

INPUT: State whether 2 nM exceeds Kd recorded for CCC[C@H]1C(=O)N[C@@H]([C@@H](C)CC)C(=O)N(C)CC(=O)N(C)[C@H]2C/C=C\CCN(C2=O)[C@@H](Cc2ccc(C(F)(F)F)cc2)C(=O)N(C)CC(=O)N[C@@H](CCc2ccc3c(C)cn(C)c3c2)C(=O)N2C[C@H](OCC)C[C@H]2C(=O)NC2(CC(C)(C)C2)C(=O)N(C)[C@@H](C(CC)CC)C(=O)N(C)[C@H](C(=O)N(C)C)CC(=O)N1C .
OUTPUT: T

INPUT: Just wondering, is Kd of CCC[C@H]1C(=O)N[C@@H](CC(C)C)C(=O)N(CCOC)CC(=O)N(C)[C@H]2C/C=C\CCN(C2=O)[C@@H](Cc2ccc(C)cc2)C(=O)N(C)CC(=O)N[C@@H](CCc2ccc(C(F)(F)F)c(Cl)c2)C(=O)N2C[C@H](OCC)C[C@H]2C(=O)NC2(CCC2)C(=O)N(C)[C@@H](C2CCCC2)C(=O)N(C)[C@H](C(=O)N(C)C)CC(=O)N1C below 2 nM?
OUTPUT: F

INPUT: Hi there! Is Kd for CCC(CC)[C@H]1C(=O)N(C)[C@H](C(=O)N(C)C)CC(=O)N(C)[C@@H](COC)C(=O)N[C@@H]([C@@H](C)CC)C(=O)N(C)CC(=O)N(C)[C@H]2C/C=C\CCN(C2=O)[C@@H](Cc2ccc(C(F)(F)F)cc2)C(=O)N(C)CC(=O)N[C@@H](CCc2ccc(Cl)c(Cl)c2)C(=O)N2C[C@H](OC3CCC3)C[C@H]2C(=O)NC2(CC(C)(C)C2)C(=O)N1C below 2 nM, do you know?
OUTPUT: T

INPUT: is_below(Kd, 2 nM) for CC[C@H](C)[C@@H]1NC(=O)[C@H](CC(C)C)N(C)C(=O)C[C@@H](C(=O)N2CCOCC2)N(C)C(=O)[C@H](C2CCCC2)N(C)C(=O)C2(CCCC2)NC(=O)[C@@H]2C[C@H](OC)CN2C(=O)[C@H](CCc2cc(F)c(C(F)(F)F)c(F)c2)NC(=O)CN(C)C(=O)[C@H](Cc2ccc(C(F)(F)F)cc2)N2CCCCC[C@@H](C2=O)N(C)C(=O)CN(C)C1=O ?
OUTPUT: F
